Listed here: items and their measured solubility.
# protocolText: Aqueous solubility
# Format: physicochemical
# reportedConditions: aqueous media

>  <structureSmilesString>
CCCN1C(CC(C)C)=NS(=O)(=O)c2cc(NC(=O)c3sccc3C)ccc21

>  <solubility>
< 1 µg/mL

$$$$
>  <structureSmilesString>
CCCN1C(CC2CCCCC2)=NS(=O)(=O)c2cc(NC(=O)c3ccc(F)cc3)ccc21

>  <solubility>
< 1 µg/mL

$$$$
>  <structureSmilesString>
CC(C)CC1=NS(=O)(=O)c2cc(NC(=O)c3ccc(F)cc3)ccc2N1C

>  <solubility>
< 1 µg/mL

$$$$
>  <structureSmilesString>
CCCN1C(CC(C)C)=NS(=O)(=O)c2cc(NC(=O)c3ccc(Cl)cc3)ccc21

>  <solubility>
< 1 µg/mL

$$$$
>  <structureSmilesString>
CCCN1C(CC(C)C)=NS(=O)(=O)c2cc(NC(=O)C3CCCC3)ccc21

>  <solubility>
< 1 µg/mL

$$$$

Continue with the next compound.
Inquiry: I would be grateful if you could share the reported solubility for CC(C)CC1=NS(=O)(=O)c2cc(NC(=O)c3ccc(F)s3)ccc2N1C .
Reply text: < 1 µg/mL
